# key: entry, value: PBM E-score
Target: Ylr278c (UniProt Q05854)
Sequence (Q05854 whole entry): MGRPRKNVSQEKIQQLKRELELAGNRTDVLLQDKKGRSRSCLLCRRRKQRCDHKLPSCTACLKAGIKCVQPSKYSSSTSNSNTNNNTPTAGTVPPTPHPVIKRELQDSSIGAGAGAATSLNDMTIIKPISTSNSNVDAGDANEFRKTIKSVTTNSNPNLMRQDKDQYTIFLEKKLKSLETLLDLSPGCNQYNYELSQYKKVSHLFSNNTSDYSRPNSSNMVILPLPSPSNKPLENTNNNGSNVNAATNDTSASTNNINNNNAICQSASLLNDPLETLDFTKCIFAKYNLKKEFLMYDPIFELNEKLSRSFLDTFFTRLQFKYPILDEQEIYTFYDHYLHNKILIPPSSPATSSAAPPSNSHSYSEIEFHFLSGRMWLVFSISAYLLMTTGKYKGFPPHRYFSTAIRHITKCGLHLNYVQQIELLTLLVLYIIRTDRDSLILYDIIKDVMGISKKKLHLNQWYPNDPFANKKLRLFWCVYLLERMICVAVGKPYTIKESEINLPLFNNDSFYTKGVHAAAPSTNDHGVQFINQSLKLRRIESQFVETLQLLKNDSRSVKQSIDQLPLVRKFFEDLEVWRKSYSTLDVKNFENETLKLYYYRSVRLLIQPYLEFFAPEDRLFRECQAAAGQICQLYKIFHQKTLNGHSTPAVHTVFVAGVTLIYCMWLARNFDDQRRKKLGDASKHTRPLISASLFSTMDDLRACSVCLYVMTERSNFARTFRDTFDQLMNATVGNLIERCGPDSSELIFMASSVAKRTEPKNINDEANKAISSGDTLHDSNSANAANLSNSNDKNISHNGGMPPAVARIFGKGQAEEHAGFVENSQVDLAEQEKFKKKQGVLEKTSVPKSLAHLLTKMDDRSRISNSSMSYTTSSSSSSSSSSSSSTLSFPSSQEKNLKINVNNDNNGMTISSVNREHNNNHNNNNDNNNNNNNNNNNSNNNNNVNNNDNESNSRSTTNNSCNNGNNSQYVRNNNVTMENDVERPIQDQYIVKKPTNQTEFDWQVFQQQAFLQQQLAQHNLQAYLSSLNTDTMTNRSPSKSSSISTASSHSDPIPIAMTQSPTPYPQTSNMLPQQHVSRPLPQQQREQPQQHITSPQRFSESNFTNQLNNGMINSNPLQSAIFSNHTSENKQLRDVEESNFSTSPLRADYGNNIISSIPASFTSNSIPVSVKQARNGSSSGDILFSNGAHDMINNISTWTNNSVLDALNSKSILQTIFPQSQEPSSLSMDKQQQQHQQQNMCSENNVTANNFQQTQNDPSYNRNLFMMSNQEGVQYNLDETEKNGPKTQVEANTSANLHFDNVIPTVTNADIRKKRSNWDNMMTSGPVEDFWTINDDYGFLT
Assay: PBM E-score (8-mer binding enrichment) (E-score (-0.5 to 0.5)); higher = stronger / more preferred TF binding
Settings: protein concentration: 200 nM; construct: GST-DNA-binding domain
Over roughly 33,000 sequences, “E-score (-0.5 to 0.5)” has its median near -0.054; the highest 2% begin near 0.39. What follows is part of a selection rich in the highest values, with near analogues and random picks from the rest.

- input_sequence: "ACCAAGAT"
  PBM E-score: -0.0275
- input_sequence: "AGGAGACG"
  PBM E-score: -0.12
- input_sequence: "CAGAGACG"
  PBM E-score: -0.0283
- input_sequence: "GGCGGACC"
  PBM E-score: 0.413
- input_sequence: "GAAACCAA"
  PBM E-score: 0.0455
- input_sequence: "CATGTACG"
  PBM E-score: -0.0652
- input_sequence: "ACTCCATC"
  PBM E-score: 0.275
- input_sequence: "CTCGGACA"
  PBM E-score: 0.435
- input_sequence: "CCCCGCAG"
  PBM E-score: 0.302
- input_sequence: "ATTGCATC"
  PBM E-score: -0.105

Which PBM E-score value belongs to GGTCTTAC ?
-0.0198

Which PBM E-score value belongs to CGGAGACA ?
0.39

Which PBM E-score value belongs to CTCCGCAC ?
0.41

Which PBM E-score value belongs to CTCGGATA ?
0.215

Which PBM E-score value belongs to ATCGGTCC ?
0.325

Which PBM E-score value belongs to AGGAGACC ?
-0.145

Which PBM E-score value belongs to CTCCGCAA ?
0.409
